Attribution: patent US10500249B2

- System: JNK3 (h) (Homo sapiens, UniProt P53779)
- Sequence (P53779 whole entry): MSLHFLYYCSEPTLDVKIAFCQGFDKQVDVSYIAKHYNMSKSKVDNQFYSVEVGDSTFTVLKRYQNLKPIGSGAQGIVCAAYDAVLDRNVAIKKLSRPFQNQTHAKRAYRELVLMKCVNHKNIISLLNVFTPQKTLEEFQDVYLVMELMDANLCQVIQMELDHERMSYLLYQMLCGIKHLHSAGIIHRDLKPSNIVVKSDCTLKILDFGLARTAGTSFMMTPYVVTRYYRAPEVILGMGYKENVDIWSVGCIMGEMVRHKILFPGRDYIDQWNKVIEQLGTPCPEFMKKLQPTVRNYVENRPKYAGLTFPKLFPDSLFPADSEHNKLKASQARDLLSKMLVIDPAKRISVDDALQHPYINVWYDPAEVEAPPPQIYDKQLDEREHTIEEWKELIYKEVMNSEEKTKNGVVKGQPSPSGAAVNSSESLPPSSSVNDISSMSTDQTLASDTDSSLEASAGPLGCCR
- Assay details: Kinase Profiling Assay
- Format: biochemical
- Applied conditions: 100 μM
The following sequences are shown together with reported % activity values.
Please reply with the bare figure in % and do not write the unit itself.

Known % activity results, listed for orientation:
| Seq text | Units text | % activity |
| --- | --- | --- |
| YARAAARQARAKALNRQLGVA (Mammalian) [MMI-0200] | % | 90 |
| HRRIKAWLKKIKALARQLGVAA (Mammalian) [MMI-0500] | % | 171 |
| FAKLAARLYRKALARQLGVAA [MMI-0300] | % | 89 |

Query: Read the entry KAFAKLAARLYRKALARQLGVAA [MMI-0400] and write its reported % activity.
Reply: 70

====

- System: Ret (V804L) (h) (Homo sapiens, UniProt P07949, V804L)
- Assay details: Kinase Profiling Assay
- Format: biochemical
- Applied conditions: 100 μM
The following sequences are shown together with reported % activity values.
Please reply with the bare figure in % and do not write the unit itself.

Known % activity results, listed for orientation:
| Seq text | % activity, % |
| --- | --- |
| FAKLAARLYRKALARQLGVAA [MMI-0300] | 79 |
| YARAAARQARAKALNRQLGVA (Mammalian) [MMI-0200] | 100 |
| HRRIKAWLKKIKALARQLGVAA (Mammalian) [MMI-0500] | 20 |

Query: Read the entry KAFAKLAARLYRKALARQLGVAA [MMI-0400] and write its reported % activity.
Reply: 73

====

- System: PTK5 (h) (Homo sapiens)
- Sequence (P42685 whole entry): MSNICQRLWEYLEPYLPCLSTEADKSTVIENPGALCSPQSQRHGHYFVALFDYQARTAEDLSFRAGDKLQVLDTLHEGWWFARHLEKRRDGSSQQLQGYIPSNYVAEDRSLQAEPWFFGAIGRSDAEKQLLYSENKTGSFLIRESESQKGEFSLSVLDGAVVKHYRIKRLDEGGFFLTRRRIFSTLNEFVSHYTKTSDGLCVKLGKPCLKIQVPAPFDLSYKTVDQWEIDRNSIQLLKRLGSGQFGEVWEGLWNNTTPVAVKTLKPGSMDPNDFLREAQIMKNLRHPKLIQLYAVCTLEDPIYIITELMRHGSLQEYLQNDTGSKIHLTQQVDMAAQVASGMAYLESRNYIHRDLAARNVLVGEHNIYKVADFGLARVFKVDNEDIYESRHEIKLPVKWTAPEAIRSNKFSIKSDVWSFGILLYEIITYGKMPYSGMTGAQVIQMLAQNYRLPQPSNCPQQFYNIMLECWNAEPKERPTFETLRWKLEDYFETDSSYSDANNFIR
- Assay details: Kinase Profiling Assay
- Type: biochemical
- Applied conditions: 100 μM
The following sequences are shown together with reported % activity values.
Please reply with the bare figure in % and do not write the unit itself.

| Seq text | % activity (%) |
| --- | --- |
| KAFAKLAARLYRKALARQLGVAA [MMI-0400] | 129 |
| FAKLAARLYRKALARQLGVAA [MMI-0300] | 132 |
| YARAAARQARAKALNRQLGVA (Mammalian) [MMI-0200] | 108 |

Here is the next item to consider.
Query: Read the entry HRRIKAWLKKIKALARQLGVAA (Mammalian) [MMI-0500] and write its reported % activity.
Reply: 96

====

The following sequences are shown together with reported % activity values.
- System: IGF-1R (h), activated (Homo sapiens, UniProt P08069)
- Construct: purchased Millipore
- Sequence (P08069 959-1367 limits assumed): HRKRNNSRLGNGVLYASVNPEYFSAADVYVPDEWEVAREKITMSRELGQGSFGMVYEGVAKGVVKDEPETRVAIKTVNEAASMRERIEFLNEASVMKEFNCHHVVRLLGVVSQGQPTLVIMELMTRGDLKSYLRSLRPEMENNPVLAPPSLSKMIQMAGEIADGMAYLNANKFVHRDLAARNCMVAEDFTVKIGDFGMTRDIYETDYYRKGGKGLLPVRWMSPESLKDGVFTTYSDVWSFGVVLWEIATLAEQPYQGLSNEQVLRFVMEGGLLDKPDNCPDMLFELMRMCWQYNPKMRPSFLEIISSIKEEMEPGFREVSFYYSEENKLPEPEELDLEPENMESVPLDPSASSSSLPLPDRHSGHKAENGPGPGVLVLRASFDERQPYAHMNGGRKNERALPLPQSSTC
- Assay details: Kinase Profiling Assay
- Assay type: biochemical
- Applied conditions: 100 μM
Please reply with the bare figure in % and do not write the unit itself.

Known % activity results, listed for orientation:
| Seq text | System | Units text | % activity |
| --- | --- | --- | --- |
| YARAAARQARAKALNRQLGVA (Mammalian) [MMI-0200] | IGF-1R (h), activated (Homo sapiens, UniProt P08069) | % | 94 |
| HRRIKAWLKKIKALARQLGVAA (Mammalian) [MMI-0500] | IGF-1R (h), activated (Homo sapiens, UniProt P08069) | % | 45 |
| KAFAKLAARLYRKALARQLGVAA [MMI-0400] | IGF-1R (h), activated (Homo sapiens, UniProt P08069) | % | 77 |

Here is the next item to consider.
Query: Read the entry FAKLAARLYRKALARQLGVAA [MMI-0300] and write its reported % activity.
Reply: 80

====

The following sequences are shown together with reported % activity values.
- System: FGFR2 (h) (Homo sapiens)
- Assay details: Kinase Profiling Assay
- Assay type: biochemical
- Applied conditions: 100 μM
Number first, unit second.

Known % activity results, listed for orientation:
| Seq text | Result |
| --- | --- |
| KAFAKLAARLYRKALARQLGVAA [MMI-0400] | 18% |
| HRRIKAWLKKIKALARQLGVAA (Mammalian) [MMI-0500] | 12% |
| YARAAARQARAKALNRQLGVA (Mammalian) [MMI-0200] | 73% |

Here is the next item to consider.
Query: Read the entry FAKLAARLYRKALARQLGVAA [MMI-0300] and write its reported % activity.
Reply: 14%

====

- System: Rsk4 (h) (Homo sapiens)
- Sequence (Q9UK32 whole entry): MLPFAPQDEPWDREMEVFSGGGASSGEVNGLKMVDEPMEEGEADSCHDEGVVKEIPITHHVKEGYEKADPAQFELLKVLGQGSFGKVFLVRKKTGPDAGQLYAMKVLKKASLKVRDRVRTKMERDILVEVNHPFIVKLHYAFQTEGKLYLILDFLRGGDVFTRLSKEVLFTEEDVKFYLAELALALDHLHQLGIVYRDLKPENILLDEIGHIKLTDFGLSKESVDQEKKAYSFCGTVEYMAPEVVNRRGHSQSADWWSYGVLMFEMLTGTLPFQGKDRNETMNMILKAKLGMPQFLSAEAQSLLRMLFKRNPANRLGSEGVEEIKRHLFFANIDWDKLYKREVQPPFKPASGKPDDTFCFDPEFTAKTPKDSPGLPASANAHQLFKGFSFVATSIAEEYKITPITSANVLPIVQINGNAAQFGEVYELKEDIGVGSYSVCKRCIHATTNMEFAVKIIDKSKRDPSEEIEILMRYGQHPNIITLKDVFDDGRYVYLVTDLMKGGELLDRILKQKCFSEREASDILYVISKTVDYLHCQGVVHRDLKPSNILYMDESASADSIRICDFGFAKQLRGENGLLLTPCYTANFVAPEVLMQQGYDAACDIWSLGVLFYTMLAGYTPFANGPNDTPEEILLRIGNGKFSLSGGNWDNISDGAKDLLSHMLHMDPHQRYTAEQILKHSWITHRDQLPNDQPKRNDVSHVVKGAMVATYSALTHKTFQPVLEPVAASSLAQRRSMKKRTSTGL
- Assay details: Kinase Profiling Assay
- Type: biochemical
- Applied conditions: 100 μM
Quantity name: % activity (%)
Please reply with the bare figure in % and do not write the unit itself.

Known % activity results, listed for orientation:
| Seq text | % activity [%] |
| --- | --- |
| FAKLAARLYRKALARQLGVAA [MMI-0300] | 90 |
| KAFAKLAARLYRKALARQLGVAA [MMI-0400] | 91 |
| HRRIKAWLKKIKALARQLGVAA (Mammalian) [MMI-0500] | 29 |

Query: Read the entry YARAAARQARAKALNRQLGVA (Mammalian) [MMI-0200] and write its reported % activity.
Reply: 125

====

The following sequences are shown together with reported % activity values.
- System: GSK3β (h) (Homo sapiens, UniProt P49841)
- Construct: purchased Millipore
- Sequence (P49841 whole entry): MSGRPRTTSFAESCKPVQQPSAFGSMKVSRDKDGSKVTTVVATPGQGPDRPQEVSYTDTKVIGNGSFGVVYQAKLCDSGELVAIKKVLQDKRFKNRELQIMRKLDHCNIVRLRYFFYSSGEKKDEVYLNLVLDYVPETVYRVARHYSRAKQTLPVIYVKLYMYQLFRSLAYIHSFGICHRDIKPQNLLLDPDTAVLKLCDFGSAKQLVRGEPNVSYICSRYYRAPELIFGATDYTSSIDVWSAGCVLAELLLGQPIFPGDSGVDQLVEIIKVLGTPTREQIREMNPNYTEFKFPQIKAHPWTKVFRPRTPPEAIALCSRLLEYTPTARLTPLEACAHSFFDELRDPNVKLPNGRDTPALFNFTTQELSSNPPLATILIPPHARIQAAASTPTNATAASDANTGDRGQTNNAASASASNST
- Assay details: Kinase Profiling Assay
- Assay type: biochemical
- Applied conditions: 100 μM
Please reply with the bare figure in % and do not write the unit itself.

Known % activity results, listed for orientation:
| Seq text | Units text | % activity |
| --- | --- | --- |
| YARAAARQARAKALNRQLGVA (Mammalian) [MMI-0200] | % | 132 |
| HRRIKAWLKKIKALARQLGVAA (Mammalian) [MMI-0500] | % | 238 |
| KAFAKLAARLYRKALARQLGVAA [MMI-0400] | % | 202 |

Here is the next item to consider.
Query: Read the entry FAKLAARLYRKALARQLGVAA [MMI-0300] and write its reported % activity.
Reply: 205

====

- System: NEK11 (h) (Homo sapiens)
- Construct: purchased Millipore
- Sequence (Q8NG66 1-645): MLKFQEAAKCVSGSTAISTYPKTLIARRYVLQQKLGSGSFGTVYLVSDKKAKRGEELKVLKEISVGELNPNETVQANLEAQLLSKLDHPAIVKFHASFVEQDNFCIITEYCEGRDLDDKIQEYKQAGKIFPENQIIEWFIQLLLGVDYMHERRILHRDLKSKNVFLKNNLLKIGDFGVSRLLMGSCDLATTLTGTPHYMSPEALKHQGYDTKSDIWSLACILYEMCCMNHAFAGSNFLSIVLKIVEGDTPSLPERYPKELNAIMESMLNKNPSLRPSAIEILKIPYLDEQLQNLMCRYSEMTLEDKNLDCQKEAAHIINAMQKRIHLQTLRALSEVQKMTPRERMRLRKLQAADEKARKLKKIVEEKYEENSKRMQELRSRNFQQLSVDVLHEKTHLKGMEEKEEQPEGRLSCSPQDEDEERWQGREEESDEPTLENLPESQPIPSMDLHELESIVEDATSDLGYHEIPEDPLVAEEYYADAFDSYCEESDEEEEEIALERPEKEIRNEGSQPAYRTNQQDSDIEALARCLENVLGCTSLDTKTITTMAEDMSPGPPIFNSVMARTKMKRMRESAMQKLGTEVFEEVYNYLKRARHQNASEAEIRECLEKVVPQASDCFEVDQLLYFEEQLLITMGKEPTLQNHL
- Assay details: Kinase Profiling Assay
- Format: biochemical
- Applied conditions: 100 μM
Quantity name: % activity (%)
Please reply with the bare figure in % and do not write the unit itself.

Known % activity results, listed for orientation:
| Seq text | Quantity name | Numeric value |
| --- | --- | --- |
| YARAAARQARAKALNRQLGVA (Mammalian) [MMI-0200] | % activity | 95 |
| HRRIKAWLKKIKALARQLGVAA (Mammalian) [MMI-0500] | % activity | 2 |
| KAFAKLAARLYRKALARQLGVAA [MMI-0400] | % activity | 33 |

Query: Read the entry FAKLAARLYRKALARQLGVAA [MMI-0300] and write its reported % activity.
Reply: 53

====

The following sequences are shown together with reported % activity values.
- System: KDR (h) (Homo sapiens)
- Sequence (P35968 20-1356): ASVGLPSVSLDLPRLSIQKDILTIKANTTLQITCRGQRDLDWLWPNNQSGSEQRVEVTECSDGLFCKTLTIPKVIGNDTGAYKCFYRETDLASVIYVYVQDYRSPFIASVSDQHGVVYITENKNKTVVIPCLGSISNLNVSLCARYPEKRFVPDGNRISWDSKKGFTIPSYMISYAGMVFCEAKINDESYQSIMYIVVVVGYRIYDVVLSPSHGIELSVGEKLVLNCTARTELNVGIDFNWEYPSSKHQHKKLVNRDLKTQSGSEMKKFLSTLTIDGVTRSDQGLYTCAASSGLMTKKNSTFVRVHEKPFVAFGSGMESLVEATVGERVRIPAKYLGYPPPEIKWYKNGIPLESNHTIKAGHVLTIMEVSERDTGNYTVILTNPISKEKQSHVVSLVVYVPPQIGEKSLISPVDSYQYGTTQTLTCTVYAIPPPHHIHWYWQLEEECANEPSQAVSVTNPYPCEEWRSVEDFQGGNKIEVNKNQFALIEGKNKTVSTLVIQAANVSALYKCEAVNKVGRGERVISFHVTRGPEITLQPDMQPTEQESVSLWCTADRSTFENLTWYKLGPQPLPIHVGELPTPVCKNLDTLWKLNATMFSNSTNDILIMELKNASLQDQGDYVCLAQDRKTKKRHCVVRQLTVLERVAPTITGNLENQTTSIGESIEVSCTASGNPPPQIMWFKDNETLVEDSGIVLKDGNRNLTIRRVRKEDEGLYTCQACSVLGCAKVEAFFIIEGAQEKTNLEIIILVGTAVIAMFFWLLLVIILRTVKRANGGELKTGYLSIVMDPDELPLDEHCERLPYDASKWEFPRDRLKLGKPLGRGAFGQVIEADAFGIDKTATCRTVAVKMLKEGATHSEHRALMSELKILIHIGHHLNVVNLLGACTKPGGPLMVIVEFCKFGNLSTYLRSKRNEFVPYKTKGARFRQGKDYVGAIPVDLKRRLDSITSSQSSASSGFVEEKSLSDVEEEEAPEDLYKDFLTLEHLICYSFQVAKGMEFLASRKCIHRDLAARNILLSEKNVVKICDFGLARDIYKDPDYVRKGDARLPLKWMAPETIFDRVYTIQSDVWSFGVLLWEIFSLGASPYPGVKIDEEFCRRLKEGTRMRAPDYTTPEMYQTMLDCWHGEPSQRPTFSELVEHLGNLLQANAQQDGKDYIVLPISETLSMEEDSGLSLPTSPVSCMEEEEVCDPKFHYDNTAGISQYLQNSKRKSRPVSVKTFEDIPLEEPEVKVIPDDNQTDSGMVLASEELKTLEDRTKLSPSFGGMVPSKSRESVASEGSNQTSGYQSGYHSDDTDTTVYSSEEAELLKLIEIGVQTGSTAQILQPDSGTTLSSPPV
- Assay details: Kinase Profiling Assay
- Type: biochemical
- Applied conditions: 100 μM
Please reply with the bare figure in % and do not write the unit itself.

Known % activity results, listed for orientation:
| Seq text | System | Numeric value |
| --- | --- | --- |
| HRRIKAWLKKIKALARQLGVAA (Mammalian) [MMI-0500] | KDR (h) (Homo sapiens) | 15 |
| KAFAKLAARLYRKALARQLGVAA [MMI-0400] | KDR (h) (Homo sapiens) | 94 |
| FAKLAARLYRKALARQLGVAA [MMI-0300] | KDR (h) (Homo sapiens) | 101 |

Query: Read the entry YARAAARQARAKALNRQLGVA (Mammalian) [MMI-0200] and write its reported % activity.
Reply: 110
